Test system: SK-MEL-28
ASSAY TEXT: NCI tumour cell line growth inhibition, 48 h
Activity calls are given as the source filed them. No stated cut-off is given here; in the data, active = GI50 up to about 1.1 µM and inactive = higher.
Measured GI50, listed per entry.
EXPERIMENTAL READOUT: GI50

# COMPOUND, REPORTED VALUE
records = [
    ("CCOC(=O)c1ccc(/N=c2\\oc3ccc(OC)cc3cc2-c2nc3ccccc3[nH]2)cc1", "> 100 µM (inactive)"),
    ("CCOC(=O)/C=C(\\C)c1ccc(C)cc1C", "21.9 µM (inactive)"),
    ("CC(C)OP(=O)(OC(C)C)C(C(C)C)N(C)/C(N)=N\\C1=NC(C(F)(F)F)(C(F)(F)F)N=C(C(C(F)(F)F)C(F)(F)F)O1 (configuration not stated)", "3.18 µM (inactive)"),
    ("Clc1ccc(COc2ccccc2/C=N/c2c(-c3ccco3)nc3ccccn23)c(Cl)c1", "66.4 µM (inactive)"),
    ("Cc1ccc(NC(=O)c2c(C)nc(=O)n3c2N(/N=C/c2ccc(Cl)cc2)CC3)cc1", "16.3 µM (inactive)"),
    ("NC(=O)NC1C(c2ccccc2)=C1c1ccccc1", "17.1 µM (inactive)"),
    ("CCN(CC)CCCNc1nnc(C)c2[nH]c3ccccc3c12", "18.7 µM (inactive)"),
]

----------
Test system: PC-3
ASSAY TEXT: NCI tumour cell line growth inhibition, 48 h
The source made the active and inactive calls. Rule as the data show it: active = GI50 up to about 1.1 µM and inactive = higher.
Possible outcomes: active, inactive

# COMPOUND, ANSWER LABEL
measured = [
    ("O=C(/C=C/c1ccsc1)c1ccco1", "inactive"),
    ("N#Cc1c(-c2ccc(Cl)cc2)c2c(n(C3OC(CO)C(O)C(O)C3O)c1=S)CCC2 (stereo not given)", "inactive"),
    ("O=C(O)CCSC(=S)Nc1ccc([N+](=O)[O-])cc1", "inactive"),
    ("COC(=O)C1=C(C(=O)OC)c2cc(OC)ccc2C(C(=S)N(C)C)S1 (stereo not given)", "inactive"),
    ("CCN(CC)CCN(/C(=N/c1ccccc1)N1CCCCC1)c1ccccc1", "inactive"),
    ("COCO[C@@H]1C[C@H]2C(=O)Nc3ccccc3C(=O)N2C1", "inactive"),
    ("Cc1cccc(-c2cc(O)c3c(C)ccnc3n2)c1", "active"),
    ("CC(=O)OCC1OC(OC2CC3C(C)(C)C(O)CC[C@]3(C)C3CCC45CC4(CCC5[C@@H](C)CC(O)C(O)C(C)(C)O)[C@]23C)C(O)C(O)C1O (stereo not given in full)", "inactive"),
    ("CCCCCNC(=O)OC1CCn2c1nc1c2C(=O)C(C)=C(N2CC2)C1=O (stereo not given)", "active"),
    ("CCCCc1c(N(C)C)c(OC(C)=O)c(-c2cn(C)c3ccccc23)oc1=O", "inactive"),
]

----------
System: TK-10
ASSAY TEXT: NCI tumour cell line growth inhibition, 48 h
Counter-ions that a name gives are not always drawn. Calls of active or inactive are those of the source. Cut-off read from the data, not from the text of the source: active = GI50 up to about 1.1 µM and inactive = higher.
Possible outcomes: active, inactive

# MOLECULE, ANSWER LABEL
rows = [
    ("O=[N+]([O-])c1cc2no[n+]([O-])c2cc1N1CCCCC1", "inactive"),
    ("Nc1nc2c(nnn2C2C=C(CO)C(O)C2O)c(=O)[nH]1 (configuration not stated)", "inactive"),
    ("COc1cc2c3c(c1)CCCN3CCC2", "inactive"),
    ("CC(C)CCC[C@@H](C)[C@H]1CCC2C3CC=C4C[C@@H](Oc5c6ccccc6nc6ccccc56)CCC4C3CCC21 (some centres not stated)", "inactive"),
    ("C=CNC(=S)n1nc(-c2ccccc2NC(=O)C(F)(F)F)c(=O)n(C(=S)NC=C)c1=S", "inactive"),
    ("COc1ccc(Nc2nc3ccc(C(F)(F)F)cc3nc2C(=O)O)cc1", "inactive"),
    ("CN(C)S(=O)(=O)/N=C/c1cccc(/C=N/S(=O)(=O)N(C)C)c1", "inactive"),
    ("FC(F)(F)c1ccc2nc3n(c2c1)C(c1c(Cl)cccc1Cl)SC3 (configuration not stated)", "inactive"),
    ("O=C(NNCc1ccc(Cl)cc1)Nc1cccc2ccccc12", "inactive"),
    ("C#Cc1c(C)c(/C=C/C(C)=C/C(=O)OC)n(C)c1C", "inactive"),
    ("Cc1ccnc2nc(-c3ccc4ccccc4c3)cc(O)c12", "inactive"),
    ("Cc1ccc(-[n+]2cc([O-])on2)cc1", "inactive"),
    ("N=NCC(=O)OC(COCc1ccccc1)COCc1ccccc1", "inactive"),
    ("N#C/C(=C/NC(=S)c1ccncc1)C(N)=O", "inactive"),
    ("C/C(=N/NC(=S)N(C)CCc1ccccn1)c1cnccn1", "active"),
    ("N=C1CSC2=NC3=C(CCC/C3=C\\c3ccccc3)C(c3ccccc3)N12 (configuration not stated)", "inactive"),
    ("CC(C)C1CC[C@@H](C)C[C@@]1(O)CC(N)=O (some centres not stated)", "inactive"),
    ("O=C(/C=C/c1cc(O)c(O)cc1O)OCCc1ccccc1", "inactive"),
    ("Cc1c([N+](=O)[O-])oc2ccc3ccccc3c12", "inactive"),
    ("CN(C)CCC=C1c2ccccc2C=Cc2ccccc21 [CYCLOBENZAPRINE HYDROCHLORIDE]", "inactive"),
    ("CC(=O)O[C@H]1CC[C@@]2(C)C(=CC[C@H]3[C@@H]4CC[C@H](c5cc(C(F)(F)F)n(C(C)=O)n5)[C@@]4(C)CC[C@@H]32)C1", "inactive"),
    ("C=C1C(=O)OC2C1CC[C@H](C)C13OC(=O)CC1[C@@]23C (some centres not stated)", "inactive"),
]

----------
Tested on: UACC-62
ASSAY TEXT: NCI tumour cell line growth inhibition, 48 h
Activity calls are given as the source filed them. No stated cut-off is given here; in the data, active = GI50 up to about 1.1 µM and inactive = higher.
Measured GI50, listed per entry.

# MOLECULE, GI50
records = [
    ("Cc1cc(C)n(CN(CCCCO)Cn2nc(C)cc2C)n1", "19.1 µM (inactive)"),
    ("COC(=O)C1=C(c2cc(OC)c(OC)c(OC)c2)OC(c2cc(OC)c(OC)c(OC)c2)C1COC(C)=O (centres undefined)", "30.5 µM (inactive)"),
    ("Cc1ccc(NC(=O)c2c(C)nc(=O)n3c2N(/N=C/c2ccc(Cl)cc2)CC3)cc1", "13.4 µM (inactive)"),
    ("O=c1c2ccccc2sc2ccccc12", "> 100 µM (inactive)"),
    ("O=C(CNc1ccccc1[N+](=O)[O-])Nn1cnc2ccc(S(=O)(=O)Nc3ccccc3[N+](=O)[O-])cc2c1=O", "> 100 µM (inactive)"),
    ("C=C1CC(C)(COc2cc(=O)oc3ccccc23)OC1=O (centres undefined)", "2.48 µM (inactive)"),
    ("C(=N\\Nc1nnc(-c2nnc(N/N=C/c3ccccc3)o2)o1)/c1ccccc1", "> 10 µM (inactive)"),
    ("FC(F)(F)c1ccc2nc3n(c2c1)C(c1c(Cl)cccc1Cl)SC3 (centres undefined)", "14.5 µM (inactive)"),
    ("CC(C)OP(=O)(OC(C)C)/C(=N/Nc1ccc([N+](=O)[O-])cc1)Nc1ccccc1", "10.8 µM (inactive)"),
]

----------
Measured GI50, listed per entry.
Tested on: SN12C
ASSAY TEXT: NCI tumour cell line growth inhibition, 48 h
Calls of active or inactive are those of the source. No stated cut-off is given here; in the data, active = GI50 up to about 1.1 µM and inactive = higher.

# MOLECULE, GI50
records = [
    ("c1ccc2c(c1)c1ccccc1n2Cn1c2ccccc2c2ccccc21", "> 100 µM (inactive)"),
    ("CN(C)Cc1ccc(-c2cc3onc(-c4ccccc4)c3c(=O)n2C)cc1", "55.6 µM (inactive)"),
    ("COc1ccc(-c2c(-c3ccc(OC)cc3)n3c(=O)n(C)c(=O)n23)cc1", "34 µM (inactive)"),
    ("CCN(CC)CCCNc1nnc(C)c2[nH]c3ccccc3c12", "12.7 µM (inactive)"),
    ("O=C(NNC(=O)c1csc(NC(=S)NC2CCCCC2)n1)c1ccccc1", "5.97 µM (inactive)"),
    ("CC1CCOc2ccc(cc2)/C=N\\c2ccc(cc2)CCc2ccc(cc2)/N=C\\c2ccc(cc2)OCC1", "> 100 µM (inactive)"),
    ("C=C1C(=O)OC2C1CC[C@H](C)C13OC(=O)CC1[C@@]23C (stereo partly drawn)", "> 100 µM (inactive)"),
    ("Cc1ccc2nc(C(C)C)c(=O)[nH]c2c1", "> 100 µM (inactive)"),
]

----------
Test system: HCT-15

# MOLECULE, GI50
records = [
    ("N#CC(N)(C(=O)CCC(=O)Nc1cccc(Cl)c1)c1ccc(Cl)cc1 (stereo not drawn)", "> 100 µM"),
    ("COc1cc(C2C(Cl)C(=O)N2NC(=O)c2ccc(NC(C)=O)cc2)ccc1O (stereo not drawn)", "> 100 µM"),
    ("CC(N)/C(N)=N/O (stereo not drawn)", "> 100 µM"),
    ("Cc1ccc(S(=O)(=O)NC(=O)NC(Cc2c[nH]c3ccccc23)C(=O)O)cc1 (stereo not drawn)", "> 100 µM"),
    ("CCN(CC)CCCNc1nnc(C)c2[nH]c3ccccc3c12", "> 100 µM"),
    ("Nc1ncnc2c1ncn2C1OC(CO)C(O)C(O)C1O (stereo not drawn)", "> 100 µM"),
    ("CC1=NN(C(=O)Cc2ccccc2)C(=O)/C1=C\\c1ccc(O)cc1", "> 100 µM"),
    ("CC(C)c1cc(C(C)C)c(S(=O)(=O)N=[N+]=[N-])c(C(C)C)c1", "> 100 µM"),
    ("O=c1cc(CSc2c(-c3ccccc3)c(=O)n(-c3ccccc3)c(=S)n2-c2ccccc2)[nH]c(=O)[nH]1", "> 100 µM"),
    ("CCCN(CCC)CCc1cc(C(C)=O)n(S(=O)(=O)c2ccc(C)cc2)c1", "> 100 µM"),
    ("Cn1c(=O)nc2n(-c3ccc(Cl)c(C(F)(F)F)c3)c3ccccc3nc-2c1=O", "31.4 µM"),
    ("COc1ccc(-c2cc(=O)c3cc(O)ccc3o2)c(OC)c1OC", "31.8 µM"),
    ("COc1c(C(C)C)cc2c3c1OC(=O)[C@@]31CCCC(C)(C)C1CC2 (stereo partly drawn)", "55.7 µM"),
    ("CC(=O)OCC1OC(OC(C)=O)C(Nc2ncc(-c3ccc(C)cc3)s2)C(OC(C)=O)C1OC(C)=O (stereo not drawn)", "22.5 µM"),
    ("CCN1C(=O)C(=C/C=C/C=C2/N(C)c3ccccc3C2(C)C)C(=O)N(CC)C1=S", "> 100 µM"),
    ("COC(=O)C(CCC1C=CCC1)/N=C\\c1ccccc1 (stereo not drawn)", "43.6 µM"),
    ("O=C1CC2(CCC(O)(c3ccccc3)C(C(=O)c3ccccc3)C2)C(=O)c2ccccc2N1 (stereo not drawn)", "> 100 µM"),
    ("COC(=O)c1ccc(Cc2ccc(C(=O)OC)o2)o1", "> 378 µM"),
    ("Nc1ccccc1N/C=C\\C(=O)C(Cl)(Cl)Cl", "19 µM"),
    ("Cc1ccc(S(=O)(=O)N/N=C2\\C=CC3(CC2)C(=O)N(I)c2ccccc23)cc1 (stereo not drawn)", "> 100 µM"),
    ("O=C(/C=C/c1ccsc1)c1ccco1", "7.24 µM"),
    ("Cc1ccc(Nc2ccc(Nc3ccc(C)cc3)c3c2C(=O)c2c(O)ccc(O)c2C3=O)cc1", "> 100 µM"),
    ("N=C(N)c1csc([C@@H]2O[C@H](CO)[C@@H](O)[C@H]2O)n1", "> 100 µM"),
    ("COc1ccc2c(C)cc(N/N=C/c3ccc(C)s3)nc2c1", "4.21 µM"),
    ("O=C(NNCc1ccc(Cl)cc1)Nc1cccc2ccccc12", "> 100 µM"),
    ("CN(/N=C/c1ccccn1)C1=NCCCN1", "> 100 µM"),
    ("CCN(CC)CCSc1nc(-c2c[nH]c3nc(C)ccc3c2=O)n[nH]1", "> 100 µM"),
    ("COc1ccccc1Cn1nc(OC)c2cc([N+](=O)[O-])ccc21", "> 70.1 µM"),
    ("CC(C)(Oc1ccc2c(=O)cc(-c3ccccc3)oc2c1)C(=O)Nc1c(Cl)cccc1Cl", "76.7 µM"),
    ("[O-]c1c2cc(-[n+]3c(-c4ccccc4)cc(-c4ccccc4)cc3-c3ccccc3)cc1CO[C@@H](c1ccccc1)[C@H](c1ccccc1)OCCOCCO[C@@H](c1ccccc1)[C@H](c1ccccc1)OC2", "0.319 µM"),
    ("COc1cc2c(cc1OC)C1C(O)C(OC)C=C3CC[N+](C)(C2)C31 (stereo not drawn)", "> 100 µM"),
    ("Cc1ncc2c(=O)c3c(oc2n1)c1ccccc1n3Cc1ccccc1", "> 100 µM"),
    ("C/C=C(\\C)CC/C=C/CO[Si](C)(C)C(C)(C)C", "> 100 µM"),
]
